tested on: MDA-MB-435 cells; experiment: SRB assay, inhibition of proliferation; type: cell-based, human; conditions: Homo sapiens; MDA-MB-435, 48 hours, n=3 mean±SD
observable: IC50 (nM)
Number only, in nM; omit the unit.

{"columns": ["compound", "units", "value.measured"],
 "data": [
  ["COc1cc2c(cc1O)CC[C@@H]1[C@@H]2CC[C@]2(C)[C@@H](O)C=C[C@@H]12 [15-dehydro-2-ME2]", "nM", 860]
]}

Query COc1cc2c(cc1O)CCC1C2CC[C@@]2(C)C1[C@H]1OC(C)(C)O[C@H]1[C@@H]2O (stereo partly shown) yields IC50 of 3240

Query COc1cc2c(cc1O)CCC1C2CC[C@@]2(C)C1CC[C@@H]2O (stereo partly shown) [2-ME2, 2-Methoxyestradiol, reference compound] yields IC50 of 1380

Query CC(=O)O[C@H]1C(=O)[C@@]2(C)[C@H]([C@H](OC(=O)c3ccccc3)[C@]3(O)C[C@H](OC(=O)[C@H](O)[C@@H](NC(=O)c4ccccc4)c4ccccc4)C(C)=C1C3(C)C)[C@]1(OC(C)=O)CO[C@@H]1C[C@@H]2O [Taxol ®, reference compound] yields IC50 of 2.01

---

IC50 values, listed per item
test system: NCI/ADR cells; experiment: SRB assay, inhibition of proliferation, multidrug resistant line; format: cell-based, human; conditions: Homo sapiens, NCI/ADR-RES; NCI/ADR multidrug resistant, 48 hours, n=3 mean±SD
Number only, in nM; omit the unit.

Below are worked cases with known answers.
{"columns": ["compound", "system.name", "observable", "value.measured"],
 "data": [
  ["COc1cc2c(cc1O)CCC1C2CC[C@@]2(C)C1CC[C@@H]2O (stereo partly shown) [2-ME2, 2-Methoxyestradiol, reference compound]", "NCI/ADR cells", "IC50", 380],
  ["COc1cc2c(cc1O)CC[C@H]1C3=CC[C@H](O)[C@@]3(C)CC[C@H]21 [14-dehydro-2-ME2]", "NCI/ADR cells", "IC50", 56],
  ["COc1cc2c(cc1O)CC[C@@H]1[C@@H]2CC[C@]2(C)[C@@H](O)C=C[C@@H]12 [15-dehydro-2-ME2]", "NCI/ADR cells", "IC50", 490],
  ["CC(=O)O[C@H]1C(=O)[C@@]2(C)[C@H]([C@H](OC(=O)c3ccccc3)[C@]3(O)C[C@H](OC(=O)[C@H](O)[C@@H](NC(=O)c4ccccc4)c4ccccc4)C(C)=C1C3(C)C)[C@]1(OC(C)=O)CO[C@@H]1C[C@@H]2O [Taxol ®, reference compound]", "NCI/ADR cells", "IC50", 4460],
  ["COc1cc2c(cc1O)CC=C1[C@@H]2CC[C@]2(C)[C@@H](O)CC[C@@H]12 [7-dehydro-2-ME2]", "NCI/ADR cells", "IC50", 2540]
]}

Kindly note: NCI/ADR cells, COc1cc2c(cc1O)CCC1C2CC[C@@]2(C)C1[C@H]1OC(C)(C)O[C@H]1[C@@H]2O (stereo partly shown) , IC50 value reported: 4210

Kindly note: NCI/ADR cells, CC[C@]1(O)C[C@@H]2CN(CCc3c([nH]c4ccccc34)[C@@](C(=O)OC)(c3cc4c(cc3OC)N(C)[C@H]3[C@@](O)(C(=O)OC)[C@H](OC(C)=O)[C@]5(CC)C=CCN6CC[C@]43[C@@H]65)C2)C1 [Vinblastine, reference compound] , IC50 value reported: 430

---

system: NCI/ADR cells; test: SRB assay, inhibition of proliferation, multidrug resistant line; format: cell-based, human; conditions: IC50 in NCI/ADR divided by IC50 in MDA-MB-435
Label rule, in plain words: NCI-ADR/MDA-MB-435 resistance factor of 1 and up is YES, under 1 is NO.

{"columns": ["molecule", "class.assignment"],
 "data": [
  ["COc1cc2c(cc1O)CC=C1[C@@H]2CC[C@]2(C)[C@@H](O)CC[C@@H]12 [7-dehydro-2-ME2]", "YES"],
  ["CC[C@]1(O)C[C@@H]2CN(CCc3c([nH]c4ccccc34)[C@@](C(=O)OC)(c3cc4c(cc3OC)N(C)[C@H]3[C@@](O)(C(=O)OC)[C@H](OC(C)=O)[C@]5(CC)C=CCN6CC[C@]43[C@@H]65)C2)C1 [Vinblastine, reference compound]", "YES"],
  ["COc1cc2c(cc1O)CC[C@@H]1[C@@H]2CC[C@]2(C)[C@@H](O)C=C[C@@H]12 [15-dehydro-2-ME2]", "NO"],
  ["COc1cc2c(cc1O)CCC1C2CC[C@@]2(C)C1[C@H]1OC(C)(C)O[C@H]1[C@@H]2O (stereo partly shown)", "YES"],
  ["COc1cc2c(cc1O)CCC1C2CC[C@@]2(C)C1CC[C@@H]2O (stereo partly shown) [2-ME2, 2-Methoxyestradiol, reference compound]", "NO"]
]}

Pending molecule:
Lookup: Would you say CC(=O)O[C@H]1C(=O)[C@@]2(C)[C@H]([C@H](OC(=O)c3ccccc3)[C@]3(O)C[C@H](OC(=O)[C@H](O)[C@@H](NC(=O)c4ccccc4)c4ccccc4)C(C)=C1C3(C)C)[C@]1(OC(C)=O)CO[C@@H]1C[C@@H]2O [Taxol ®, reference compound] shows NCI-ADR/MDA-MB-435 resistance factor at minimum 1?
Found: YES

---

test system: Human Umbilical Vein Endothelial Cells (HUVEC); assay: HUVEC proliferation (SRB assay); type: cell-based; conditions: Homo sapiens; HUVEC, SRB assay
pIC50: −log10 of the molar value.
Label rule, in plain words: pIC50 of 6 and up is Condition met, under 6 is Condition not met.

{"columns": ["compound", "class.assignment"],
 "data": [
  ["COc1cc2c(cc1O)CC[C@H]1C3=CC[C@H](O)[C@@]3(C)CC[C@H]21 [14-dehydro-2-ME2]", "Condition met"],
  ["COc1cc2c(cc1O)CC=C1[C@@H]2CC[C@]2(C)[C@@H](O)CC[C@@H]12 [7-dehydro-2-ME2]", "Condition not met"]
]}

Lookup: Would you say COc1cc2c(cc1O)CCC1C2CC[C@@]2(C)C1[C@H]1OC(C)(C)O[C@H]1[C@@H]2O (stereo partly drawn) [2-ME2-15α, 16α] shows pIC50 at minimum 6?
Found: Condition not met

---

tested on: MDA-MB-435 cells; assay: SRB assay, inhibition of proliferation; type: cell-based, human; conditions: Homo sapiens; MDA-MB-435, 48 hours, n=3 mean±SD
IC50 values, listed per item
Number only, in nM; omit the unit.

{"columns": ["compound", "IC50 (nM)"],
 "data": [
  ["COc1cc2c(cc1O)CC=C1[C@@H]2CC[C@]2(C)[C@@H](O)CC[C@@H]12 [7-dehydro-2-ME2]", 1970]
]}

Query CC[C@]1(O)C[C@@H]2CN(CCc3c([nH]c4ccccc34)[C@@](C(=O)OC)(c3cc4c(cc3OC)N(C)[C@H]3[C@@](O)(C(=O)OC)[C@H](OC(C)=O)[C@]5(CC)C=CCN6CC[C@]43[C@@H]65)C2)C1 [Vinblastine, reference compound] yields IC50 of 3.08

Query COc1cc2c(cc1O)CC[C@H]1C3=CC[C@H](O)[C@@]3(C)CC[C@H]21 [14-dehydro-2-ME2] yields IC50 of 56

---

pIC50 values, listed per item
system: PC3 cells; assay: SRB assay, inhibition of proliferation; format: cell-based; conditions: Homo sapiens, PC-3; PC3, 48 hours, n=3 mean±SD
When answering, recall that pIC50 equals minus log10 of the concentration in mol/L, and write that number alone.

{"columns": ["molecule", "value.measured"],
 "data": [
  ["COc1cc2c(cc1O)CCC1C2CC[C@@]2(C)C1[C@H]1OC(C)(C)O[C@H]1[C@@H]2O (stereo partly shown)", 5.29],
  ["COc1cc2c(cc1O)CCC1C2CC[C@@]2(C)C1CC[C@@H]2O (stereo partly shown) [2-ME2, 2-Methoxyestradiol, reference compound]", 5.65],
  ["COc1cc2c(cc1O)CC[C@@H]1[C@@H]2CC[C@]2(C)[C@@H](O)C=C[C@@H]12 [15-dehydro-2-ME2]", 5.74]
]}

The record that follows has no pIC50 shown yet.
Kindly note: PC3 cells, COc1cc2c(cc1O)CC[C@H]1C3=CC[C@H](O)[C@@]3(C)CC[C@H]21 [14-dehydro-2-ME2] , pIC50 value reported: 6.46

---

IC50 values, listed per item
test system: SK-OV-3 cells; assay: SRB assay, inhibition of proliferation; format: cell-based; settings: Homo sapiens; SK-OV-3, 48 hours, n=3 mean±SD
In your response, the unit should come after the numeric value.

Below are worked cases with known answers.
{"columns": ["compound", "system.name", "IC50"],
 "data": [
  ["COc1cc2c(cc1O)CC[C@@H]1[C@@H]2CC[C@]2(C)[C@@H](O)C=C[C@@H]12 [15-dehydro-2-ME2]", "SK-OV-3 cells", "1.37 µM"],
  ["COc1cc2c(cc1O)CCC1C2CC[C@@]2(C)C1CC[C@@H]2O (some centres unmarked) [2-ME2, 2-Methoxyestradiol, reference compound]", "SK-OV-3 cells", "1.79 µM"],
  ["COc1cc2c(cc1O)CCC1C2CC[C@@]2(C)C1[C@H]1OC(C)(C)O[C@H]1[C@@H]2O (some centres unmarked)", "SK-OV-3 cells", "5.16 µM"],
  ["COc1cc2c(cc1O)CC=C1[C@@H]2CC[C@]2(C)[C@@H](O)CC[C@@H]12 [7-dehydro-2-ME2]", "SK-OV-3 cells", "4.49 µM"]
]}

The record that follows has no IC50 shown yet.
Kindly note: SK-OV-3 cells, COc1cc2c(cc1O)CC[C@H]1C3=CC[C@H](O)[C@@]3(C)CC[C@H]21 [14-dehydro-2-ME2] , IC50 value reported: 0.15 µM
